Values were extracted from patent US20250109215A1.

Target: T1, human CD123 (human, UniProt P26951 19-305, limits assumed)
T1 construct: Construct on the chip is not described; also called CD123 chip
T1 sequence (looked up): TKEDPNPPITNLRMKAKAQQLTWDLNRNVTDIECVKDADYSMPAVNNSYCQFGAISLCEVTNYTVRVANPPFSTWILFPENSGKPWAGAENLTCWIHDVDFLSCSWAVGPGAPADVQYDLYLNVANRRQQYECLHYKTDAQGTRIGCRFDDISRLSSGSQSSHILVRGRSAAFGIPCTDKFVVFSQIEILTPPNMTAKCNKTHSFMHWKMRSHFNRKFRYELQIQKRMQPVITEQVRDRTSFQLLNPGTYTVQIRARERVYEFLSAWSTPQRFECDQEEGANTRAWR
Experiment: Biacore, Fab-His on CD123 (Example 3; the sheet names no assay)
READOUT_TYPE: Ka (M⁻¹)
Report the value in M⁻¹ with no unit label.

13965 7G3_H1.107_L1.57_Fab_His (Fab, V domains shown, also called XENP13965) VH: QVQLQQSGAEVKKPGASVKVSCKASGYTFTDYYMKWVRQAPGQSLEWMGDIIPSNGATFYNQKFKGKATLTVDRSTSTAYMELSSLRSEDTAVYYCARSHLLRASWFAYWGQGTLVTVSS VL: DFVMTQSPDSLAVSLGERATINCKSSQSLLNTGNQKNYLTWYQQKPGQPPKLLIYWASTRESGVPDRFTGSGSGTDFTLTISSLQAEDVAVYYCQNDYSYPYTFGGGTKLEIKR : 1.6e+10

input: Endpoint output: Ka of 13963 7G3_H1.109_L1_Fab_His (Fab, V domains shown, also called XENP13963) VH: QVQLQQSGAEVKKPGASVKVSCKASGYTFTDYYMKWVKQSHGKSLEWMGDIIPSNGATFYNQKFKGKATLTVDRSTSTAYMELSSLRSEDTAVYYCARSHLLRASWFAYWGQGTLVTVSS VL: DFVMTQSPDSLAVSLGERATINCKSSQSLLNSGNQKNYLTWYQQKPGQPPKLLIYWASTRESGVPDRFTGSGSGTDFTLTISSLQAEDVAVYYCQNDYSYPYTFGGGTKLEIKR . Value?
output: 1.35e+10
